- Tested on: WPMY1-TUBA1B-RELA
- assay: phenotypically active (imaging signature differs from DMSO and reproducible) at any of 0.3-9 uM (binary (1 = active, 0 = inactive)); higher = active
- condition description: treatment time: 24 h
Outcome codes: TRUE = active, FALSE = inactive

1) N#C/C(=C/c1ccc(O)c(O)c1)C(=O)NCCCCc1ccccc1 ... TRUE
2) CC(C)(C)c1cc(/C=C(\C#N)C(N)=S)cc(C(C)(C)C)c1O ... FALSE
3) O=C1C=C(O)C(=O)c2ccccc21 [2-Hydroxy-[1,4]naphthoquinone] ... FALSE
4) COc1cc2c(cc1OCCCN1CCCC1)N=C(N)C21CCC1 ... FALSE
5) Cc1cc(C)c(C)c(S(=O)(=O)Nc2ccc(N3CC[C@H](C(=O)O)C3)c3ccccc23)c1C ... FALSE

---

- System: A549-TUBA1B-RELA
- assay: phenotypically active (imaging signature differs from DMSO and reproducible) at any of 0.3-9 uM (binary (1 = active, 0 = inactive)); higher = active
- condition description: treatment time: 24 h
experimental endpoint: phenotypically active

1) CCOC(=O)[C@H](CCc1ccccc1)N[C@H]1CCc2ccccc2N(CC(=O)O)C1=O ... 0
2) COc1cc2nccc(Oc3ccc(NC(=O)C4(C(=O)Nc5ccc(F)cc5)CC4)cc3)c2cc1OC ... 1
3) CN(C)C(=O)C(CCN1CCC(O)(c2ccc(Cl)cc2)CC1)(c1ccccc1)c1ccccc1 [loperamide] ... 1
4) Cc1ccc(C(=O)N(CCCN)[C@@H](c2oc3cc(Cl)ccc3c(=O)c2Cc2ccccc2)C(C)C)cc1 ... 1
5) Cc1ccc(S(=O)(=O)c2ccc([N+](=O)[O-])o2)cc1 ... 0

---

- Test system: HepG2-ACTB-RAB5A
- assay: lowest phenotypically active concentration; higher = less potent
- condition description: treatment time: 24 h
Where a name gives a salt, the structure may show the parent alone.
Parameter lowest phenotypically active concentration: see the listing below.
experimental endpoint: lowest phenotypically active concentration

1. COc1cc(-c2cn(C)c(=O)c3cnccc23)c(OC)cc1CN(C)C ... 9 µM
2. COc1ccc(-c2ccc3ncc4c(c3c2)n(-c2ccc(N3CCNCC3)c(C(F)(F)F)c2)c(=O)n4C)cn1 ... ≤ 0.3 µM
3. CN1CCN(c2ccc(OC(F)(F)F)c(Nc3ncc4c(n3)-c3c(c(C(N)=O)nn3CCO)CC4)c2)CC1 ... ≤ 0.3 µM
4. CON(C)C(=O)N1N=C(c2cc(F)ccc2F)S[C@@]1(CCCN)c1ccccc1 [ARRY 520 trifluoroacetate] ... ≤ 0.3 µM
5. Clc1ccc(C2(c3ccc(-c4cn[nH]c4)cc3)CCNCC2)cc1 ... ≤ 0.3 µM

---

- System: WPMY1-GM130-SQSTM1
- assay: phenotypically active (imaging signature differs from DMSO and reproducible) at any of 0.3-9 uM (binary (1 = active, 0 = inactive)); higher = active
- condition description: treatment time: 24 h
Possible outcomes: t for active, f for inactive

1. CCN1CCN(c2cc(-c3ccc(F)cc3)c3c(n2)CCCCCC3)CC1 [blonanserin] ... f
2. O=C(Nc1nc2cc(C(F)(F)F)cc(NC3CC3)n2n1)c1cccnc1 ... f
3. CN1C(=O)/C(=C2/Nc3ccccc3/C2=N/O)c2ccc(Br)cc21 ... t
4. CCCCCN(C)CCC(O)(P(=O)(O)O)P(=O)(O)O [ibandronate] ... f
5. Cc1cc(Nc2cc(N3CCN(C)CC3)nc(Sc3ccc(NC(=O)C4CC4)cc3)n2)[nH]n1 ... t
6. O=c1cc(-c2ccccc2)oc2c(O)c(O)ccc12 [7,8-Dihydroxyflavone] ... t
7. COc1cc(N2CCN(C)CC2)ccc1Nc1nccc(-c2cn(C)c3cnccc23)n1 ... t
8. CC(C)CNc1nc(-c2cccc3ncccc23)cn2c(-c3ccc(C(=O)NC4CC4)cc3)cnc12 ... t
9. O=C(/C=C/c1ccc(O)c(O)c1)O[C@@H]1C[C@](O)(C(=O)O)C[C@@H](O)[C@H]1O [Chlorogenic acid] ... f
